Data origin: patent US20250235545A1

Test system: A2780 ovarian cancer tumor model
assay.name: Efficacy in animal model of A2780 ovarian cancer, 30 mg/kg once a week for two weeks (Example 41)
Format: in vivo, BALB/c mice
measurement.parameters: Day 10
Where a SMILES comes first, the peptide text is derived from it. The star is where a group is joined. X4 = CCCN(CCc1c2c(nc3ccccc13)-c1cc3c(c(=O)n1C2)COC(=O)[C@]3(O)CC)*; Propanoyl(3-maleimido) = O=C1C=CC(=O)N1CCC(=O)*; PEG6 = NCCOCCOCCOCCOCCOCCOCCC(=O)O
measured.attribute: A2780 (ovarian cancer) mean tumor volume (mm^3) Day 10
The reply should contain only the number, in mm^3.

compound="CCCN(CCc1c2c(nc3ccccc13)-c1cc3c(c(=O)n1C2)COC(=O)[C@]3(O)CC)C(=O)CNC(=O)[C@H](CC(N)=O)NC(=O)[C@H](C)NC(=O)[C@H](C)NC(=O)CCOCCOCCOCCOCCOCCOCCNC(=O)CCN1C(=O)C=CC1=O [MI-6PEG-AANG-D3] ({Propanoyl(3-maleimido)-PEG6}-AANG-X4)" units_label=mm^3 result_value=898.06

Here's the next entry for you.
Noted for CC[C@@]1(O)C(=O)OCC2=C1C=C1c3nc4ccccc4c(CCN(C(=O)OCc4ccc(NC(=O)[C@H](CC(N)=O)NC(=O)[C@H](C)NC(=O)[C@H](C)NC(=O)CCOCCOCCOCCOCCOCCOCCNC(=O)CCN5C(=O)C=CC5=O)cc4)C(C)C)c3CN1C2 : its A2780 (ovarian cancer) mean tumor volume (mm^3) Day 10 reads 837.75

----------
assay.name: MTD determination in mice (Examples 27, 36, 44)
Assay type: in vivo
measurement.parameters: mice, monitored for 14 d; Table 9
measured.attribute: MTD

Some solved entries appear below for comparison.
compound=CC[C@@]1(O)C(=O)OCc2c1cc1n(c2=O)Cc2c-1nc1ccccc1c2CCNC1CC1 result_value="10 mg/kg"
compound=CC[C@@]1(O)C(=O)OCc2c1cc1n(c2=O)Cc2c-1nc1ccccc1c2CCNC1CCCC1 result_value="25 mg/kg"

In the following, a different compound is considered.
Documented MTD of CCNCCc1c2c(nc3ccccc13)-c1cc3c(c(=O)n1C2)COC(=O)[C@]3(O)CC [D2] : 25 mg/kg

----------
assay.name: Tumor homogenate activation efficiency, ovarian cancer tissue (Examples 28, 37)
Assay type: in vitro ADME
measurement.parameters: pH 5.0, 37° C., 2 h; Table 10
Where a SMILES comes first, the peptide text is derived from it. The star is where a group is joined. Belotecan = CC[C@@]1(O)C(=O)OCc2c1cc1n(c2=O)Cc2c-1nc1ccccc1c2CCN(C(C)C)*; X2 = CCCCN(CCc1c2c(nc3ccccc13)-c1cc3c(c(=O)n1C2)COC(=O)[C@]3(O)CC)*; X1 = CC[C@@]1(O)C(=O)OCc2c1cc1n(c2=O)Cc2c-1nc1ccccc1c2CCN(C1CCC1)*; X5 = CC[C@@]1(O)C(=O)OCc2c1cc1n(c2=O)Cc2c-1nc1ccccc1c2CCN(CC(C)C)*; X3 = CC[C@@]1(O)C(=O)OCc2c1cc1n(c2=O)Cc2c-1nc1ccccc1c2CCN(C1CC1)*; X7 = CC[C@@]1(O)C(=O)OCc2c1cc1n(c2=O)Cc2c-1nc1ccccc1c2CCN(C)*; Propanoyl(3-maleimido) = O=C1C=CC(=O)N1CCC(=O)*; PEG6 = NCCOCCOCCOCCOCCOCCOCCC(=O)O
Label scheme for Percentage of release efficiency (%) Ovarian cancer tissue (A2780): lower than 70% is FALSE, 70% and above is TRUE.

Example entries and their recorded answers appear below.
compound="CC[C@@]1(O)C(=O)OCc2c1cc1n(c2=O)Cc2c-1nc1ccccc1c2CCN(C)C(=O)[C@H](CC(C)C)NC(=O)[C@H](Cc1ccccc1)NC(=O)CNC(=O)CNC(=O)CCOCCOCCOCCOCCOCCOCCNC(=O)CCN1C(=O)C=CC1=O [MI-6PEG-GGFL-D1] ({Propanoyl(3-maleimido)-PEG6}-GGFL-X7)" category_label=TRUE
compound="CC[C@@]1(O)C(=O)OCc2c1cc1n(c2=O)Cc2c-1nc1ccccc1c2CCN(C(=O)[C@H](CC(C)C)NC(=O)[C@H](CC(N)=O)NC(=O)[C@H](C)NC(=O)[C@H](C)NC(=O)CCOCCOCCOCCOCCOCCOCCNC(=O)CCN1C(=O)C=CC1=O)C1CCC1 [MI-6PEG-AANL-D7] ({Propanoyl(3-maleimido)-PEG6}-AANL-X1)" category_label=FALSE
compound="CC[C@@]1(O)C(=O)OCc2c1cc1n(c2=O)Cc2c-1nc1ccccc1c2CCN(C(=O)[C@H](CC(C)C)NC(=O)[C@H](CC(N)=O)NC(=O)[C@H](C)NC(=O)[C@H](C)NC(=O)CCOCCOCCOCCOCCOCCOCCNC(=O)CCN1C(=O)C=CC1=O)C(C)C [MI-6PEG-AANL-Belotecan] ({Propanoyl(3-maleimido)-PEG6}-AANL-Belotecan)" category_label=TRUE
compound="CC[C@@]1(O)C(=O)OCc2c1cc1n(c2=O)Cc2c-1nc1ccccc1c2CCN(C(=O)[C@H](CC(C)C)NC(=O)[C@H](CC(N)=O)NC(=O)[C@H](C)NC(=O)[C@H](C)NC(=O)CCOCCOCCOCCOCCOCCOCCNC(=O)CCN1C(=O)C=CC1=O)C1CC1 [MI-6PEG-AANL-D6] ({Propanoyl(3-maleimido)-PEG6}-AANL-X3)" category_label=TRUE
compound="CC[C@@]1(O)C(=O)OCc2c1cc1n(c2=O)Cc2c-1nc1ccccc1c2CCN(C)C(=O)[C@H](CC(C)C)NC(=O)[C@H](CC(N)=O)NC(=O)[C@H](C)NC(=O)[C@H](C)NC(=O)CCOCCOCCOCCOCCOCCOCCNC(=O)CCN1C(=O)C=CC1=O [MI-6PEG-AANL-D1] ({Propanoyl(3-maleimido)-PEG6}-AANL-X7)" category_label=FALSE

Dear colleague, could you confirm whether CC[C@@]1(O)C(=O)OCc2c1cc1n(c2=O)Cc2c-1nc1ccccc1c2CCN(CC(C)C)C(=O)[C@H](CC(C)C)NC(=O)[C@H](CC(N)=O)NC(=O)[C@H](C)NC(=O)[C@H](C)NC(=O)CCOCCOCCOCCOCCOCCOCCNC(=O)CCN1C(=O)C=CC1=O [MI-6PEG-AANL-D5] ({Propanoyl(3-maleimido)-PEG6}-AANL-X5) has Percentage of release efficiency (%) Ovarian cancer tissue (A2780) at or above 70%? TRUE

Is Percentage of release efficiency (%) Ovarian cancer tissue (A2780) at least 70%? Consider CCCCN(CCc1c2c(nc3ccccc13)-c1cc3c(c(=O)n1C2)COC(=O)[C@]3(O)CC)C(=O)[C@H](CC(C)C)NC(=O)[C@H](CC(N)=O)NC(=O)[C@H](C)NC(=O)[C@H](C)NC(=O)CCOCCOCCOCCOCCOCCOCCNC(=O)CCN1C(=O)C=CC1=O [MI-6PEG-AANL-D4] ({Propanoyl(3-maleimido)-PEG6}-AANL-X2) FALSE

Decide: Percentage of release efficiency (%) Ovarian cancer tissue (A2780) of CC[C@@]1(O)C(=O)OCc2c1cc1n(c2=O)Cc2c-1nc1ccccc1c2CCN(C(=O)[C@H](CC(C)C)NC(=O)[C@H](Cc1ccccc1)NC(=O)CNC(=O)CNC(=O)CCOCCOCCOCCOCCOCCOCCNC(=O)CCN1C(=O)C=CC1=O)C(C)C [MI-6PEG-GGFL-Belotecan] ({Propanoyl(3-maleimido)-PEG6}-GGFL-Belotecan) >= 70%? TRUE

----------
assay.name: Tumor homogenate activation efficiency, small cell lung cancer tissue (Example 28)
Type: in vitro ADME
measurement.parameters: pH 5.0, 37° C., 2 h; Table 5
Where a SMILES comes first, the peptide text is derived from it. The star is where a group is joined. NEt(2-(20S-CPT-7-yl)ethyl) = CCN(CCc1c2c(nc3ccccc13)-c1cc3c(c(=O)n1C2)COC(=O)[C@]3(O)CC)*; X8 = CC[C@@]1(O)C(=O)OCc2c1cc1n(c2=O)Cc2c-1nc1ccccc1c2CCN(C1CCCC1)*; X3 = CC[C@@]1(O)C(=O)OCc2c1cc1n(c2=O)Cc2c-1nc1ccccc1c2CCN(C1CC1)*; X7 = CC[C@@]1(O)C(=O)OCc2c1cc1n(c2=O)Cc2c-1nc1ccccc1c2CCN(C)*; Propanoyl(3-maleimido) = O=C1C=CC(=O)N1CCC(=O)*; PEG6 = NCCOCCOCCOCCOCCOCCOCCC(=O)O
measured.attribute: Percentage of release efficiency (%) Small cell lung cancer tissue (NCI-H841)
Dear colleague, please return just the value in %, with no unit written.

Sample answers from the record:
compound="CC[C@@]1(O)C(=O)OCc2c1cc1n(c2=O)Cc2c-1nc1ccccc1c2CCN(C(=O)CNC(=O)[C@H](CC(N)=O)NC(=O)[C@H](C)NC(=O)[C@H](C)NC(=O)CCOCCOCCOCCOCCOCCOCCNC(=O)CCN1C(=O)C=CC1=O)C1CCCC1 [MI-6PEG-AANG-D8] ({Propanoyl(3-maleimido)-PEG6}-AANG-X8)" units_label=% result_value=80.8
compound="CC[C@@]1(O)C(=O)OCc2c1cc1n(c2=O)Cc2c-1nc1ccccc1c2CCN(C)C(=O)CNC(=O)[C@H](Cc1ccccc1)NC(=O)CNC(=O)CNC(=O)CCOCCOCCOCCOCCOCCOCCNC(=O)CCN1C(=O)C=CC1=O [MI-6PEG-GGFG-D1] ({Propanoyl(3-maleimido)-PEG6}-GGFG-X7)" units_label=% result_value=66.3
compound="CCN(CCc1c2c(nc3ccccc13)-c1cc3c(c(=O)n1C2)COC(=O)[C@]3(O)CC)C(=O)CNC(=O)[C@H](CCCCN)NC(=O)[C@H](C)NC(=O)[C@H](C)NC(=O)CCOCCOCCOCCOCCOCCOCCNC(=O)CCN1C(=O)C=CC1=O [MI-6PEG-AAKG-D2] ({Propanoyl(3-maleimido)-PEG6}-AAKG-{NEt(2-(20S-CPT-7-yl)ethyl)})" units_label=% result_value=68

Entry CC[C@@]1(O)C(=O)OCc2c1cc1n(c2=O)Cc2c-1nc1ccccc1c2CCN(C(=O)CNC(=O)[C@H](CC(N)=O)NC(=O)[C@H](C)NC(=O)[C@H](C)NC(=O)CCOCCOCCOCCOCCOCCOCCNC(=O)CCN1C(=O)C=CC1=O)C1CC1 [MI-6PEG-AANG-D6] ({Propanoyl(3-maleimido)-PEG6}-AANG-X3) , Percentage of release efficiency (%) Small cell lung cancer tissue (NCI-H841) reported as 76

Entry under test: CC[C@@]1(O)C(=O)OCc2c1cc1n(c2=O)Cc2c-1nc1ccccc1c2CCN(C(=O)CNC(=O)[C@H](Cc1ccccc1)NC(=O)CNC(=O)CNC(=O)CCOCCOCCOCCOCCOCCOCCNC(=O)CCN1C(=O)C=CC1=O)C1CCCC1 [MI-6PEG-GGFG-D8] ({Propanoyl(3-maleimido)-PEG6}-GGFG-X8) . Its Percentage of release efficiency (%) Small cell lung cancer tissue (NCI-H841) was 66.7
